# Assay target: NKp46 (human) (UniProt O76036)
# Sequence (O76036 22-304): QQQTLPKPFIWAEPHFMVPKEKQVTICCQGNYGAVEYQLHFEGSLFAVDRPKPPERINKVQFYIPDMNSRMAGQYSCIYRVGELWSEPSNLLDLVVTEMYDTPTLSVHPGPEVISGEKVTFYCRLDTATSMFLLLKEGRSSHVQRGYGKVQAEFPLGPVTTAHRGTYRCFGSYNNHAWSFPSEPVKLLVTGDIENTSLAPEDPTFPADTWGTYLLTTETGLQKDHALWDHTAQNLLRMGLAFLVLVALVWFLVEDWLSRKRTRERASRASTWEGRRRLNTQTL
# Assay explanation: cell-based or functional assay
Starred links: 1 amine or outer side, 2 acyl side, 3 side chain; linkers in the order of their positions; H or OH if unused. Positions of bridges follow the written chain, without caps; N, C: chain ends. Non-standard residues stand in square brackets, D forms with d. Chains are numbered I, II in the order given. No end group written: not given here. *: point of attachment. TBMT = 2,4,6-tris(bromomethyl)-s-triazine, molecular scaffold, C(c1nc(C[*:2])nc(C[*:3])n1)[*:1]; TATA = O=C(CC[*:1])N1CN(C(=O)CC[*:2])CN(C(=O)CC[*:3])C1; Hyp = O=C(O)[C@@H]1C[C@@H](O)CN1; hArg = N=C(N)NCCCC[C@H](N)C(=O)O; Cba = N[C@@H](CC1CCC1)C(=O)O; Pent4ynoyl = C#CCCC(=O)*
Listed binders paired with reported EC50, NK cytotoxicity assay (HT1080-luc luminescence)
Enter your answer as a number in nM; do not include the unit.

Illustrative cases are given below, each with its answer.
heterotandem bicyclic peptide complex BCY21686 (linker I:4-I:11-I:18, II:1-II:8-II:13 via TATA; not fully specified (bridges); also: EphA2:NKp46 1:3, three copies of chain 2 on the linker, linker also given with PEG3-acid, X5, X17: HyP or HArg) peptide 1: A[hArg]DC[Hyp]LVNPLCLHP[dD]W[hArg]C peptide 2: Ac-CY[Cba]PDYLC[dA]DEYCK(Pent4ynoyl) | 0.0013
heterotandem bicyclic peptide complex BCY15923 (linker I:4-I:11-I:18, II:2-II:9-II:14 via TATA; also: EphA2:NKp46 1:2, two copies of chain 2 on the linker, X5, X17: HyP or HArg, linker at chain B 16 to a chain's N-terminus via N-(acid-PEG3)-N-bis(PEG3-azide) linker) peptide 1: A[hArg]DC[Hyp]LVNPLCLHP[dD]W[hArg]C peptide 2: ACDLTTHNCQWGICAK(Pent4ynoyl) | 0.044
heterotandem bicyclic peptide complex BCY18731 (linker I:4-I:11-I:18, II:1-II:8-II:13 via TATA; not fully specified (bridges); also: joined via azide-PEG24-acid linker (N-terminus of chain 1 to PYA of chain 2, triazole)) peptide 1: A[hArg]DC[Hyp]LVNPLCLHP[dD]W[hArg]C peptide 2: Ac-CY[Cba]PDYLC[dA]DEYCK(Pent4ynoyl) | 0.018

Next item in the queue.
Report measured EC50, NK cytotoxicity assay (HT1080-luc luminescence); entry is heterotandem bicyclic peptide complex BCY20793 (linker I:4-I:11-I:18, II:1-II:8-II:13 via TATA; linker III:2-III:10-III:14 via TBMT; also: three peptides joined on N-(PEG3-acid)-N-(PEG3-azide)-N-(PEG3-NH-AcAz) linker (triazole to PYA of chains 2 and 3)) peptide 1: A[hArg]DC[Hyp]LVNPLCLHP[dD]W[hArg]C peptide 2: Ac-CY[Cba]PDYLC[dA]DEYCK(Pent4ynoyl) peptide 3: ACRWHFSEPCGAWCAK(Pent4ynoyl)
0.0065
